These measurements were taken from patent US3974140A.

test system: Staph. aureus 133; test: Surviving mice after intraperitoneal infection and subcutaneous therapy; assay type: in vivo, white mice, CF1 strain; conditions: 2 × 200 units/mouse s.c., 1 day
readout type: Number of surviving mice (%)
Lab book: enter the figure in %, no units written.

| compound | unit of measure | Number of surviving mice |
| --- | --- | --- |
| CN(C(=O)N[C@@H](C(=O)N[C@@H]1C(=O)N2[C@@H]1SC(C)(C)[C@@H]2C(=O)O)c1ccccc1)C(=O)C1CC=CCC1 (single isomer, unassigned) | % | 90 |

I would be grateful if you could share the reported Number of surviving mice for COc1ccc(C(=O)N(C)C(=O)N[C@@H](C(=O)N[C@@H]2C(=O)N3[C@@H]2SC(C)(C)[C@@H]3C(=O)O)c2ccccc2)cc1[N+](=O)[O-] .
80

What do you have for CC1(C)S[C@@H]2[C@H](NC(=O)[C@H](N)c3ccccc3)C(=O)N2[C@H]1C(=O)O [Ampicillin, D(-)-α-Aminobenzylpenicillin, reference compound] ?
100

* * *

experiment: Acute toxicity (LD50), intravenous injection into the vein of the tail; type: in vivo; conditions: mouse, in vivo, iv
readout type: LD50

Reference set, count: 4
| compound | LD50 |
| --- | --- |
| CC(=O)N(C)C(=O)N[C@@H](C(=O)N[C@@H]1C(=O)N2[C@@H]1SC(C)(C)[C@@H]2C(=O)O)c1ccccc1 [Example 66A] | > 4000 mg/kg |
| COc1ccc(C(=O)N(C)C(=O)N[C@@H](C(=O)N[C@@H]2C(=O)N3[C@@H]2SC(C)(C)[C@@H]3C(=O)O)c2ccccc2)cc1[N+](=O)[O-] [Example 83] | > 1200 mg/kg |
| CN(C(=O)N[C@@H](C(=O)N[C@@H]1C(=O)N2[C@@H]1SC(C)(C)[C@@H]2C(=O)O)c1ccccc1)C(=O)c1cccs1 [Example 75] | 1500 mg/kg |
| CN(C)C(=O)N(C)C(=O)N[C@@H](C(=O)N[C@@H]1C(=O)N2[C@@H]1SC(C)(C)[C@@H]2C(=O)O)c1ccccc1 [Example 94] | 4000 mg/kg |

Any idea what its LD50 is? The compound is CC1(C)S[C@@H]2[C@H](NC(=O)C(C(=O)O)c3ccccc3)C(=O)N2[C@H]1C(=O)O (some centres unmarked) [Carbenicillin]
2700 mg/kg

* * *

Each entry below carries its reported MIC.
test system: Psdm. aerug. Bonn; experiment: MIC, liquid medium test tube series dilution test; assay type: cell-based, Pseudomonas aerug.; conditions: 24 hours, 37°C
Numeric answer only, unit units/ml assumed.

Sample answers from the record:
| compound | experimental system | MIC / units/ml |
| --- | --- | --- |
| CN(C(=O)N[C@@H](C(=O)N[C@@H]1C(=O)N2[C@@H]1SC(C)(C)[C@@H]2C(=O)O)c1ccccc1)C(=O)c1ccccc1[N+](=O)[O-] [Example 140] | Psdm. aerug. Bonn | 12.5 |
| CN(C(=O)CCCCl)C(=O)N[C@@H](C(=O)N[C@@H]1C(=O)N2[C@@H]1SC(C)(C)[C@@H]2C(=O)O)c1ccccc1 [Example 2] | Psdm. aerug. Bonn | 100 |
| CN(C(=O)N[C@@H](C(=O)N[C@@H]1C(=O)N2[C@@H]1SC(C)(C)[C@@H]2C(=O)O)c1ccccc1)C(=O)c1ccccc1 [Example 59] | Psdm. aerug. Bonn | 12.5 |
| Cc1ccc(C(=O)N(C)C(=O)N[C@@H](C(=O)N[C@@H]2C(=O)N3[C@@H]2SC(C)(C)[C@@H]3C(=O)O)c2ccccc2)cc1[N+](=O)[O-] [Example 70] | Psdm. aerug. Bonn | 12.5 |
| CN(C(=O)N[C@@H](C(=O)N[C@@H]1C(=O)N2[C@@H]1SC(C)(C)[C@@H]2C(=O)O)c1ccccc1)C(=O)c1ccc(Cl)cc1[N+](=O)[O-] [Example 127] | Psdm. aerug. Bonn | 12.5 |
| C=CCN(C(=O)N[C@@H](C(=O)N[C@@H]1C(=O)N2[C@@H]1SC(C)(C)[C@@H]2C(=O)O)c1ccccc1)C(=O)c1ccccc1 [Example 90] | Psdm. aerug. Bonn | 25 |
| Cc1ccc(C(NC(=O)N(C)C(=O)c2ccccc2F)C(=O)N[C@@H]2C(=O)N3[C@@H]2SC(C)(C)[C@@H]3C(=O)O)cc1 (stereo partly drawn) [Example 44] | Psdm. aerug. Bonn | 50 |
| COC(=O)N(C)C(=O)N[C@@H](C(=O)N[C@@H]1C(=O)N2[C@@H]1SC(C)(C)[C@@H]2C(=O)O)c1ccccc1 [Example 96] | Psdm. aerug. Bonn | 25 |

Attention now shifts to the item below.
Which MIC value is on record for CN(C(=O)N[C@@H](C(=O)N[C@@H]1C(=O)N2[C@@H]1SC(C)(C)[C@@H]2C(=O)O)c1ccccc1)C(=O)N1CCCCC1 [Example 123] ?
50

* * *

tested on: E. coli C 165; assay: MIC, liquid medium test tube series dilution test; type: cell-based; conditions: E. coli C 165, 24 hours, 37°C
readout type: MIC

Use the examples below as a reference point.
| molecule | readout type | reported result |
| --- | --- | --- |
| CN(C(=O)CCCCl)C(=O)N[C@@H](C(=O)N[C@@H]1C(=O)N2[C@@H]1SC(C)(C)[C@@H]2C(=O)O)c1ccccc1 [Example 88] | MIC | 6.25 units/ml |
| CN(C=O)C(=O)N[C@@H](C(=O)N[C@@H]1C(=O)N2[C@@H]1SC(C)(C)[C@@H]2C(=O)O)c1ccccc1 | MIC | 4-20 units/ml |
| C=CCN(C(=O)NC(C(=O)N[C@@H]1C(=O)N2[C@@H]1SC(C)(C)[C@@H]2C(=O)O)c1ccc(OC)cc1)C(=O)c1ccccc1 (stereo partly drawn) | MIC | 20-100 units/ml |
| CN(C(=O)N[C@@H](C(=O)N[C@@H]1C(=O)N2[C@@H]1SC(C)(C)[C@@H]2C(=O)O)c1ccccc1)C(=O)c1cccs1 | MIC | 0.8-4 units/ml |
| CC1(C)S[C@@H]2[C@H](NC(=O)[C@H](NC(=O)N(C(=O)c3ccccc3)c3ccccc3)c3ccccc3)C(=O)N2[C@H]1C(=O)O | MIC | 20-100 units/ml |

As a next step, examine the molecule that follows.
Item: CSc1ccc(C(NC(=O)N2CCNC2=O)C(=O)N[C@@H]2C(=O)N3[C@@H]2SC(C)(C)[C@@H]3C(=O)O)cc1 (stereo partly drawn) [Example 54] Test system: E. coli C 165 Read-out: MIC Value: ?
25 units/ml

* * *

A collection of compounds and their measured MIC
tested on: E. coli 14; experiment: MIC, liquid medium test tube series dilution test; format: cell-based; details: E. coli 14, 24 hours, 37°C
Form entry: value (units/ml) — number only.

| compound | MIC, units/ml |
| --- | --- |
| CN(C(=O)CCCl)C(=O)N[C@@H](C(=O)N[C@@H]1C(=O)N2[C@@H]1SC(C)(C)[C@@H]2C(=O)O)c1ccccc1 [Example 64] | 3.12 |
| CC(=O)N(C)C(=O)NC(C(=O)N[C@@H]1C(=O)N2[C@@H]1SC(C)(C)[C@@H]2C(=O)O)c1ccc(Cl)cc1 (stereo partly drawn) [Example 121] | 6 |
| CCC(=O)N(C(=O)N[C@@H](C(=O)N[C@@H]1C(=O)N2[C@@H]1SC(C)(C)[C@@H]2C(=O)O)c1ccccc1)c1ccccc1 [Example 143] | 12.5 |
| Cc1ccc(C(=O)N(C)C(=O)N[C@@H](C(=O)N[C@@H]2C(=O)N3[C@@H]2SC(C)(C)[C@@H]3C(=O)O)c2ccccc2)cc1 [Example 73] | 3.12 |

Entry C=CCN(C(=O)N[C@@H](C(=O)N[C@@H]1C(=O)N2[C@@H]1SC(C)(C)[C@@H]2C(=O)O)c1ccccc1)C(=O)c1ccccc1 [Example 90] has what MIC?
6.25

* * *

compounds and their reported MIC
test system: Psdm. aerug. Bonn; experiment: MIC, liquid medium test tube series dilution test; assay type: cell-based, Pseudomonas aerug.; conditions: 24 hours, 37°C
Return type: number; implicit unit units/ml.

These solved cases illustrate the format of a correct answer.
| compound | MIC (units/ml) |
| --- | --- |
| CN(C(=O)N[C@@H](C(=O)N[C@@H]1C(=O)N2[C@@H]1SC(C)(C)[C@@H]2C(=O)O)c1ccccc1)C(=O)C1CC=CCC1 (single isomer, unassigned) | 12.5 |
| CC1(C)S[C@@H]2[C@H](NC(=O)[C@H](NC(=O)N(CCCl)C(=O)CCC(Cl)(Cl)Cl)c3ccccc3)C(=O)N2[C@H]1C(=O)O | 50 |

Lab note: need MIC for CN(C(=O)N[C@@H](C(=O)N[C@@H]1C(=O)N2[C@@H]1SC(C)(C)[C@@H]2C(=O)O)c1ccccc1)C(=O)c1ccc(Cl)cc1Cl on Psdm. aerug. Bonn, anyone have it?
25

Same question, Cc1ccc(C(=O)N(C)C(=O)N[C@@H](C(=O)N[C@@H]2C(=O)N3[C@@H]2SC(C)(C)[C@@H]3C(=O)O)c2ccccc2)cc1 this time
12.5

Now the compound CC(C)OC(=O)N(C)C(=O)N[C@@H](C(=O)N[C@@H]1C(=O)N2[C@@H]1SC(C)(C)[C@@H]2C(=O)O)c1ccccc1
25
